- TARGET_UNDER_TEST: T1, CD3ε homodimer protein (human, UniProt P07766 23-126, limits assumed, sulfo-tag or biotin label in some ECL assays)
- T1 construct: also called human CD3ε homodimer protein; CD3 (CD3ε)
- PROCEDURE_TEXT: SPR, CD3ε homodimer on chip;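 note: biacore SPR with antibody variants flowed as analyte over amine-coupled CD3ε homodimer on a CM chip, bound amount of each single-residue H chain variant over that of parent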
Label FALSE if ratio of amounts bound vs CE115HA000 falls below 0.4; label TRUE in every other case.

Is ratio of amounts bound vs CE115HA000 at least 0.4? Consider CE115HA000 N31I (antibody, name in Kabat numbering, V domains shown) VH: QVQLVESGGGVVQPGRSLRLSCAASGFTFSIAWMHWVRQAPGKGLEWVAQIKAKSNNYATYYAESVKGRFTISRDDSKNSLYLQMNSLKTEDTAVYYCRYVHYGAYYGVDAWGQGTTVTVSS VL: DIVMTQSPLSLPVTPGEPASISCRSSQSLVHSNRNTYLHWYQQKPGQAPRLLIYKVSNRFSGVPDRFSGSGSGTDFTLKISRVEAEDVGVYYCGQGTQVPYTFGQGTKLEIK TRUE

Answer whether ratio of amounts bound vs CE115HA000 of CE115HA000 G100bI (antibody, name in Kabat numbering, V domains shown) VH: QVQLVESGGGVVQPGRSLRLSCAASGFTFSNAWMHWVRQAPGKGLEWVAQIKAKSNNYATYYAESVKGRFTISRDDSKNSLYLQMNSLKTEDTAVYYCRYVHYGAYYIVDAWGQGTTVTVSS VL: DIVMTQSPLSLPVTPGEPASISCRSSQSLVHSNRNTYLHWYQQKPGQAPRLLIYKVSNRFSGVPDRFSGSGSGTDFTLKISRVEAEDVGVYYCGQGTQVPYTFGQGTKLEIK is greater than or equal to 0.4. FALSE

Kindly determine if ratio of amounts bound vs CE115HA000 recorded for CE115HA000 G100bE (antibody, name in Kabat numbering, V domains shown) VH: QVQLVESGGGVVQPGRSLRLSCAASGFTFSNAWMHWVRQAPGKGLEWVAQIKAKSNNYATYYAESVKGRFTISRDDSKNSLYLQMNSLKTEDTAVYYCRYVHYGAYYEVDAWGQGTTVTVSS VL: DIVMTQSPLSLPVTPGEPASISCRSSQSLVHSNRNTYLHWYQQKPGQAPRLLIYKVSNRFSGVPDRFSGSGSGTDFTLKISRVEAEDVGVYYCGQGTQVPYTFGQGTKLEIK is above or exactly 0.4. FALSE

Assess whether reported ratio of amounts bound vs CE115HA000 for CE115HA000 G98H (antibody, name in Kabat numbering, V domains shown) VH: QVQLVESGGGVVQPGRSLRLSCAASGFTFSNAWMHWVRQAPGKGLEWVAQIKAKSNNYATYYAESVKGRFTISRDDSKNSLYLQMNSLKTEDTAVYYCRYVHYHAYYGVDAWGQGTTVTVSS VL: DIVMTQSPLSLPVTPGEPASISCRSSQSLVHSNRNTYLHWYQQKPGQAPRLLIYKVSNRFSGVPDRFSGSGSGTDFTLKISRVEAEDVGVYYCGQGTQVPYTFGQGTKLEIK sits at 0.4 or higher. TRUE

Is ratio of amounts bound vs CE115HA000 for CE115HA000 K52D (antibody, name in Kabat numbering, V domains shown) VH: QVQLVESGGGVVQPGRSLRLSCAASGFTFSNAWMHWVRQAPGKGLEWVAQIDAKSNNYATYYAESVKGRFTISRDDSKNSLYLQMNSLKTEDTAVYYCRYVHYGAYYGVDAWGQGTTVTVSS VL: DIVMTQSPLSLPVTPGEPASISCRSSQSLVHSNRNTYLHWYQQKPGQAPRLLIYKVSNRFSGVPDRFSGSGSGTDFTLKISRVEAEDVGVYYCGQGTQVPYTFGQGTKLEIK at or above 0.4? FALSE
